Measured values drawn from patent US20220332800A1 for this set.

Molecular target: T1, ZIKV-VLP (Native Antigen Inc.) (Zika virus)
T1 construct: also called Zika VLP; ZVLP
Assay: BLI binning on ZIKV-VLP; 1st mAb: 242-3
READOUT_NAME: response of 2nd mAb
Reply with just the number.

Data request: Param item = anti-ZIKV antibody 289-3 (antibody, V domains shown, also called clone 289-3; subclone 289-3) VH: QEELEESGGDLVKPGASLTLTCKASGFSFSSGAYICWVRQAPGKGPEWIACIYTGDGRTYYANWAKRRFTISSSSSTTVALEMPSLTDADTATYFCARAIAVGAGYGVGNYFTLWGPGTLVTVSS VL: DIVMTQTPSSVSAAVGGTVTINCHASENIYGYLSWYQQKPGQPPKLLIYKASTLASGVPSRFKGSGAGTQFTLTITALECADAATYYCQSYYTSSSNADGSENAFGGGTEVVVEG ; retrieve measured response of 2nd mAb.
Data returned: 0.07

Data request: Param item = anti-ZIKV antibody 242-3 (antibody, V domains shown, also called clone 242-3) VH: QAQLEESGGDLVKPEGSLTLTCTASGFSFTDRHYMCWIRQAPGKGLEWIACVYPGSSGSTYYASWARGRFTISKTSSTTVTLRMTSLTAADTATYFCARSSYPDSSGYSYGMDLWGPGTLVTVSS VL: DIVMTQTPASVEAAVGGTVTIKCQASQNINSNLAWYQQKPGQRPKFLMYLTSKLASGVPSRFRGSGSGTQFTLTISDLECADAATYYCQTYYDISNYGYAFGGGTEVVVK ; retrieve measured response of 2nd mAb.
Data returned: 0.08

Let us examine a further case.
Data request: Param item = anti-ZIKV antibody 270-12 (antibody, V domains shown, also called clone 270-12) VH: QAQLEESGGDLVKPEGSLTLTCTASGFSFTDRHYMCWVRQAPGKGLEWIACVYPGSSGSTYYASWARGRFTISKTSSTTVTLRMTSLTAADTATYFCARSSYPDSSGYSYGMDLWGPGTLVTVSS VL: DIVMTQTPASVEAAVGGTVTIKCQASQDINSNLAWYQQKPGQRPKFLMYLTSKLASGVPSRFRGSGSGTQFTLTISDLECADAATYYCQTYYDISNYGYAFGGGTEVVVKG ; retrieve measured response of 2nd mAb.
Data returned: 0.04
